experimentalTarget: Histone-lysine N-methyltransferase NSD2 (Homo sapiens, UniProt O96028)
Sequence (O96028 whole entry): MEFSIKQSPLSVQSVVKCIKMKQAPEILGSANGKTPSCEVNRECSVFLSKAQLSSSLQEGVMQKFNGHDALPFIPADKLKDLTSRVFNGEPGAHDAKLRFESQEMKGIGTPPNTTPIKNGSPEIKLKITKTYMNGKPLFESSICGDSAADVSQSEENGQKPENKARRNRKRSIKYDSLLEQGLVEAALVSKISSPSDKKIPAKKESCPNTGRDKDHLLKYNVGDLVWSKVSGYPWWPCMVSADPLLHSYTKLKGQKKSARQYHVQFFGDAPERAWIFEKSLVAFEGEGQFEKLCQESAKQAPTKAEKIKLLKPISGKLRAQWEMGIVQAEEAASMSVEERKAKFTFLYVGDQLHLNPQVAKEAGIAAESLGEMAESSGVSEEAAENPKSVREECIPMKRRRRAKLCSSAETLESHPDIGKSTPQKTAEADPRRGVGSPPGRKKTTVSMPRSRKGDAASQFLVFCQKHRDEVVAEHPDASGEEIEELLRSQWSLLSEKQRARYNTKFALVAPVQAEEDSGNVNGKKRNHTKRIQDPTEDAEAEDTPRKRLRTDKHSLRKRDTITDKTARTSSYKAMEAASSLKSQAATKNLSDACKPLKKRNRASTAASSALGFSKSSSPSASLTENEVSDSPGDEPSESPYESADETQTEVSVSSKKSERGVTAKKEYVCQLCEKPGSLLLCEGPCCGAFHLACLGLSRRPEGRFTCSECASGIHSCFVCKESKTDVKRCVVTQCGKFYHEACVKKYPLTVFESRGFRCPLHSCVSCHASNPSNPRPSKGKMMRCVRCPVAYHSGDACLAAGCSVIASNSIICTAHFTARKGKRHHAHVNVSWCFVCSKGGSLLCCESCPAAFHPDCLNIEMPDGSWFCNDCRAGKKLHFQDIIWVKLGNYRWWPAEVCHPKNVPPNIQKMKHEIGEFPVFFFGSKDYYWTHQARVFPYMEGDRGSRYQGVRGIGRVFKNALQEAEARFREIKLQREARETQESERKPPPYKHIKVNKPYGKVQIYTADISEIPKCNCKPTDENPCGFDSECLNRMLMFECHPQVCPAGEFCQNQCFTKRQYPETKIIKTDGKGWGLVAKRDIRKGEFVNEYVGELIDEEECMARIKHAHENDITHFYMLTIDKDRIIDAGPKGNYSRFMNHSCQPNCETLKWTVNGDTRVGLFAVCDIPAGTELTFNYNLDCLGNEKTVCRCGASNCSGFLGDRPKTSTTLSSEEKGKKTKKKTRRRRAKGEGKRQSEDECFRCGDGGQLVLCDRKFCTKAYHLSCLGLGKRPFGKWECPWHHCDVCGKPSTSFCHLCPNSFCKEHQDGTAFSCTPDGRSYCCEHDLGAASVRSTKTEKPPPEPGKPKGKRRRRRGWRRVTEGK
readoutLabel: IC50

GET IC50 where system = Histone-lysine N-methyltransferase NSD2 (Homo sapiens, UniProt O96028) and item = "C[C@H](Oc1ccc(-c2cc3c(C4=CCNCC4)ncnc3[nH]2)cc1)c1ccccc1"
> 20 µM

====

experimentalTarget: Protein arginine N-methyltransferase 5 (Homo sapiens)
Sequence (O14744 whole entry): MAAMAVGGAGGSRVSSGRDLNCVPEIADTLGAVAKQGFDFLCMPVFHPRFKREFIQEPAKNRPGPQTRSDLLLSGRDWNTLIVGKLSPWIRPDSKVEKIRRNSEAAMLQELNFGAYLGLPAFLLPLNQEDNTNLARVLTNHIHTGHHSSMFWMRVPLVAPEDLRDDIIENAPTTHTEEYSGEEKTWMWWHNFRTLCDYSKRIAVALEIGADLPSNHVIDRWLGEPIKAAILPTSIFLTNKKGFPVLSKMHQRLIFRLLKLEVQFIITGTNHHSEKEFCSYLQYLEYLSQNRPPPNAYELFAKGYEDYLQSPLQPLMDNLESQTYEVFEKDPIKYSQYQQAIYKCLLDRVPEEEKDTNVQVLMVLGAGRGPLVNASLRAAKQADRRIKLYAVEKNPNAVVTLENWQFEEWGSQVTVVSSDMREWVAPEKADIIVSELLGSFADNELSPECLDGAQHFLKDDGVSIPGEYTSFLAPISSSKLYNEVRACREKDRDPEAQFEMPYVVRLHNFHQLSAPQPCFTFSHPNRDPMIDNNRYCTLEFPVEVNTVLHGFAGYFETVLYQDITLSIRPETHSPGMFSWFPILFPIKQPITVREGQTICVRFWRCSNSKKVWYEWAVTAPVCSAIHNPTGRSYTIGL
protocolNotes: Displacement of [3H]-SAM from PRMT5 (unknown origin) using peptide substrate preincubated for 15 mins followed by substrate addition for 60 mins by radioactive biochemical assay
readoutLabel: IC50 (µM)
State the answer as a number, implicitly in µM.

> print(dat)
                                   molecule  readingunit     val
1  CN1CCN(c2ncnc3[nH]c(-c4ccc(OCc5ccccc5)cc4)cc23)CC1           µM  0.0275
2  CC(Oc1ccc(-c2cc3c(C4=CCNCC4)ncnc3[nH]2)c(F)c1)c1ccccc1 (racemic)           µM  0.0304
3  C[C@H](Oc1ccc(-c2cc3c(C4=CCNCC4)ncnc3[nH]2)cc1)c1ccccc1           µM  0.0239
4  C[C@@H](Oc1ccc(-c2nc3c(C4=CCNCC4)ncnc3[nH]2)c(F)c1)c1ccccc1           µM   0.157
5  c1ccc(COc2ccc(-c3cc4c(NC5CCNCC5)ncnc4[nH]3)cc2)cc1           µM  0.0223

Identify the reported IC50 for the following entry. "c1ccc(COc2ccc(-c3cc4c(N5CCCNCC5)ncnc4[nH]3)cc2)cc1"
0.0104

Hello, please tell me recorded IC50 for this one: "Cn1cc(-c2ncnc3[nH]c(-c4ccc(OCc5ccccc5)cc4)cc23)cn1"
0.119

Given "C[C@H](Oc1ccc(-c2cc3c(C4=CCNCC4)ncnc3[nH]2)c(F)c1)c1ccccc1" , respond with its IC50.
0.0221

====

protocolNotes: Cmax in Sprague-Dawley rat at 10 mg/kg, po measured for 0.25 to 24 hrs by LC-MS/MS analysis
Type: ADME, organism-based
Set-up: time lower 0.25 hrs, dose 10 mg/kg, time upper 24 hrs, route po
experimentalContext: in vivo
readoutLabel: Cmax

> print(dat)
                                  structure  readoutlabel         val
1  C[C@H](Oc1ccc(-c2cc3c(C4=CCNCC4)ncnc3[nH]2)cc1)c1ccccc1.Cl          Cmax  27.7 ng/mL

Specify measured Cmax for "C[C@H](Oc1ccc(-c2cc3c(C4=CCNCC4)ncnc3[nH]2)cc1)c1ccccc1" .
8.22 ng/mL

====

experimentalTarget: Histone-lysine N-methyltransferase 2B (Homo sapiens, UniProt Q9UMN6)
Sequence (Q9UMN6 whole entry): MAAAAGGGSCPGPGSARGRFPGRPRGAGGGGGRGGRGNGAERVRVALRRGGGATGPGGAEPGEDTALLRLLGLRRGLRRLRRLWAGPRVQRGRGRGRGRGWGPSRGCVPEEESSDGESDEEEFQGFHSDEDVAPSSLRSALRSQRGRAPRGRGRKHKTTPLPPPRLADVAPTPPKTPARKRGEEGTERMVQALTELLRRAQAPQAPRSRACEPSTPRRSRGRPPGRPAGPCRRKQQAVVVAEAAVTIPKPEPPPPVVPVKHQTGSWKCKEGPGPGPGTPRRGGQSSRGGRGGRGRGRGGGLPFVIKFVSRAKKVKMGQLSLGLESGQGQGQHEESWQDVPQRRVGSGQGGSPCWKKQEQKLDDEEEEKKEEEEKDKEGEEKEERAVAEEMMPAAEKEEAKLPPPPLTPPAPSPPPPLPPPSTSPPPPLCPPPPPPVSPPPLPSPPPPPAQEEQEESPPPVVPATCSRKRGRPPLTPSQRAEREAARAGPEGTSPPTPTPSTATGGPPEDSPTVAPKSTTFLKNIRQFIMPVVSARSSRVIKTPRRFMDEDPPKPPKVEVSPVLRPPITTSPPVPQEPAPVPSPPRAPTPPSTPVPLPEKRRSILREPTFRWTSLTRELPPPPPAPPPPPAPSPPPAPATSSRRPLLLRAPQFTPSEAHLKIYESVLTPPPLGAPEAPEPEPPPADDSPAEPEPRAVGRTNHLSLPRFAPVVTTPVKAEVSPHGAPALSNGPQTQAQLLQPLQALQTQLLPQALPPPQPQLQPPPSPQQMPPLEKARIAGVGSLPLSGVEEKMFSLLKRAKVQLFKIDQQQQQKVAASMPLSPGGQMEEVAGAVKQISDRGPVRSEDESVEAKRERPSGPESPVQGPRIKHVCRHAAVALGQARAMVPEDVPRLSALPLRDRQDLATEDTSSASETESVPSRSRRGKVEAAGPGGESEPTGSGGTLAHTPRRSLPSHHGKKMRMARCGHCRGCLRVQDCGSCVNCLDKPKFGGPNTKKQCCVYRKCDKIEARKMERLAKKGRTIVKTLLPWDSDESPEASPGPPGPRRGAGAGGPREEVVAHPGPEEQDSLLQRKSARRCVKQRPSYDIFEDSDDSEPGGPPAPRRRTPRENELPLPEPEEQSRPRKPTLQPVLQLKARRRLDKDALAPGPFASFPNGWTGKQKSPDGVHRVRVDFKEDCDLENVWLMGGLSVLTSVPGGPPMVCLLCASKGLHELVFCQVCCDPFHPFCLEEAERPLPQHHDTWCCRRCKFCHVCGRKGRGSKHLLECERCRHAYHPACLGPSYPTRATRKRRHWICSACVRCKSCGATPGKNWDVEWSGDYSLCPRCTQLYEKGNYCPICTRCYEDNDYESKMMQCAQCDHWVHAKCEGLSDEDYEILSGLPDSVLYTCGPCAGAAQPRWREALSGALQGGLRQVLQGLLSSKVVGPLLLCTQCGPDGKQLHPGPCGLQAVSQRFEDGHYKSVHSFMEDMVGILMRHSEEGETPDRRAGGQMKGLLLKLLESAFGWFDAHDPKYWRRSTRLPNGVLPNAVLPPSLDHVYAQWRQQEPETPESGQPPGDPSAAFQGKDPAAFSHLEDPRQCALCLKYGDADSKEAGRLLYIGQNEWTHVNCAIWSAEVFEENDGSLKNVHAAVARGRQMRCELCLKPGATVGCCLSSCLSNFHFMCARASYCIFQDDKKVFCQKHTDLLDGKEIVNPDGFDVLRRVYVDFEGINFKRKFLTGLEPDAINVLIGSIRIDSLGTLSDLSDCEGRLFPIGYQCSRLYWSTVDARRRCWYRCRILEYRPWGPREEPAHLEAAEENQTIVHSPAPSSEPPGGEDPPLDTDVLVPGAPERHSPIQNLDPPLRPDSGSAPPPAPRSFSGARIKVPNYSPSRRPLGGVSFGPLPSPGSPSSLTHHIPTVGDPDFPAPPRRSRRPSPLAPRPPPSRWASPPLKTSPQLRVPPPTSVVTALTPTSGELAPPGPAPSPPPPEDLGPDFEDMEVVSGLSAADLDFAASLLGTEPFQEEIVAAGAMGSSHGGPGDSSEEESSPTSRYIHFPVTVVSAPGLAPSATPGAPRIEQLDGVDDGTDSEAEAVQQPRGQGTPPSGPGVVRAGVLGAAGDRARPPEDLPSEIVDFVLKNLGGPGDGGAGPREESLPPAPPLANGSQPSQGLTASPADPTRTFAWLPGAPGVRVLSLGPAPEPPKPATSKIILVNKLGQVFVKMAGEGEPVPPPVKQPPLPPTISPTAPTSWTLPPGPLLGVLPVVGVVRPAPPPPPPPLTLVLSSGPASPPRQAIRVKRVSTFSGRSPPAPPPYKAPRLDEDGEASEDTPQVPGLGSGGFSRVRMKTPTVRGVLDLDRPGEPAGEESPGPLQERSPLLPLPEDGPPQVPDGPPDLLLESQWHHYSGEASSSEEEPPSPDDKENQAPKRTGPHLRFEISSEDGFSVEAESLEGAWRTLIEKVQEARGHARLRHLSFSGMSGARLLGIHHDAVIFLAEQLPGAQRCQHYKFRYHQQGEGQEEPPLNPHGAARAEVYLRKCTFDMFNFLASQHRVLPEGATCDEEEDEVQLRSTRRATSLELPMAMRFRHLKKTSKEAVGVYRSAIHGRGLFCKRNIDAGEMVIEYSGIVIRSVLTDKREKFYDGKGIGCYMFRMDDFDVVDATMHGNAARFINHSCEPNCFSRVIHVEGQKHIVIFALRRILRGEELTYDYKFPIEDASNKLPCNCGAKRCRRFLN
readoutLabel: IC50

Under Histone-lysine N-methyltransferase 2B (Homo sapiens, UniProt Q9UMN6), report IC50 for "C[C@H](Oc1ccc(-c2cc3c(C4=CCNCC4)ncnc3[nH]2)cc1)c1ccccc1"
> 20 µM

====

protocolNotes: Cmax in mouse at 10 mg/kg, po measured for 0.25 to 24 hrs by LC-MS/MS analysis
Type: ADME, organism-based
Set-up: time lower 0.25 hrs, dose 10 mg/kg, time upper 24 hrs, route po
experimentalContext: in vivo
readoutLabel: Cmax (ng/mL)
Write the value in ng/mL as a bare number.

Quick one: give measured Cmax for "C[C@H](Oc1ccc(-c2cc3c(C4=CCNCC4)ncnc3[nH]2)cc1)c1ccccc1.Cl"
128
